Where do the numbers come from? From patent US20230183239A1.

- targetOrTestSystem: ENPP1 (Homo sapiens, UniProt P22413)
- Sequence (P22413 whole entry): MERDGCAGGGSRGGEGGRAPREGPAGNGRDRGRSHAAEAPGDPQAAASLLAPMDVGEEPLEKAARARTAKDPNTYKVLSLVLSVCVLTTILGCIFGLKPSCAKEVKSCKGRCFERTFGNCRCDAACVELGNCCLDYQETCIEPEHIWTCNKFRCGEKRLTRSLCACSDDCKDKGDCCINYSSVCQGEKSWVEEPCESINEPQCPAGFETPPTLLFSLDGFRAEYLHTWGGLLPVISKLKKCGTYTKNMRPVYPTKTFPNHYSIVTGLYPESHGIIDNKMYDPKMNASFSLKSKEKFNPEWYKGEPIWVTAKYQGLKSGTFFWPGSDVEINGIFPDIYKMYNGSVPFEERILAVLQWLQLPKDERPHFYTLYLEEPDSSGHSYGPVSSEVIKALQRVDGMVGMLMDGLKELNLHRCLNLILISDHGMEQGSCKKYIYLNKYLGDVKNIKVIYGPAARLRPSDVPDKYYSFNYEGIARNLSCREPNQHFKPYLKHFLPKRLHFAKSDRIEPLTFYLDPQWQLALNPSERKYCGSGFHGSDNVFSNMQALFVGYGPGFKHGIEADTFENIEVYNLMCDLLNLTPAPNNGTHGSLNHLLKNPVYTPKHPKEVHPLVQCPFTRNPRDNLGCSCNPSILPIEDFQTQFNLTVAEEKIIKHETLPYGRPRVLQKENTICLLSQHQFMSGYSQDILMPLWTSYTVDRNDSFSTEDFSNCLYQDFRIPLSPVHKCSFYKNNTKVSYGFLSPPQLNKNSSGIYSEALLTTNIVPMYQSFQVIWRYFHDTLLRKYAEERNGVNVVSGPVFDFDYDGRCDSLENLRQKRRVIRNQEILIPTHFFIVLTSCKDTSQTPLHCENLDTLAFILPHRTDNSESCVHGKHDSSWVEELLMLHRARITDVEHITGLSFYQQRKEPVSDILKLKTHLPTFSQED
- test: ENPP1 enzyme assay with AMP-pNP substrate (hydrolysis of ATP analog)
- Assay type: biochemical
- reportedConditions: AMP-pNP substrate (ATP analog); Ki from IC50 by Cheng-Prusoff; read-out: ENPP1 Inhibition _AMP-pNP: Ki
Would you kindly list Ki for each of these compounds?

Request: Param item = COc1ccc2c(-c3ccc4c(c3)CN(S(N)(=O)=O)CC4)ccnc2n1 [Example 365] ; retrieve measured Ki.
Response: 100 to 1000 nM

Request: Which Ki value is on record for COc1ccc2c(N3CCc4cc(NS(N)(=O)=O)ccc43)ccnc2c1 [Example 59] ?
Response: < 100 nM

Request: Please look up its Ki: COc1ccc2c(Oc3ccc(N)cc3)ccnc2c1 [Example 342, 4-((7-methoxyquinolin-4-yl)oxy)aniline]
Response: > 1000 nM

Request: // lookup Ki for NS(=O)(=O)N1CCC2(CCN(c3ncnc4ccccc34)CC2)C1 [Example 158]
Response: 100 to 1000 nM

Request: Name the recorded Ki for COc1cc2ncc(-c3ccc4c(c3)CN(S(N)(=O)=O)CC4)c(Cl)c2cc1OC [Example 260] .
Response: < 100 nM

Request: Could you share which Ki value was measured for COc1cc2ncc(F)c(N3CCC(CCNS(N)(=O)=O)CC3)c2cc1OC [Example 66] ?
Response: < 100 nM

Request: Query (compound): COc1cc2ncc(C#N)c(-c3ccc4c(c3)CN(S(N)(=O)=O)CC4)c2cc1OC [Example 149] ; field requested: Ki
Response: < 100 nM

Request: Would you mind telling me what Ki value was observed for COc1ccc2c(-c3ccc(C(C)(C)NS(N)(=O)=O)cc3)ccnc2c1 [Example 357] ?
Response: 100 to 1000 nM

Request: Returns the measured Ki for the input compound. Input: COc1ccc2c(Oc3ccc(S(N)(=O)=O)cc3)ccnc2n1 [Example 361]
Response: < 100 nM

Request: Given the entry COc1ccc2c(Oc3ccc(NS(N)(=O)=O)cc3C#N)ccnc2c1 [Example 353] , report its measured Ki.
Response: > 1000 nM

Request: Name the reported Ki value associated with the compound COc1ccc2c(Oc3ccc(S(N)(=O)=O)cc3)c(C)cnc2c1 [Example 359]
Response: 100 to 1000 nM

Request: Fill in the blank: the reported Ki of COc1cc2ncnc(N3CCC4(CCNC4)CC3)c2cc1OC [Example 274] is ____.
Response: > 1000 nM

Request: If you can, please state the reported Ki value of NS(=O)(=O)NCCC1CCN(c2cc(-c3ccc4c(c3)OCO4)ncn2)CC1 [Example 10] .
Response: > 1000 nM

Request: // query Ki value for entry COc1cc2nccc(Oc3cc(F)c(NS(N)(=O)=O)cc3F)c2cc1OC [Example 258]
Response: > 1000 nM

Request: # input compound: COc1ccc2c(NCc3ccc(S(N)(=O)=O)cc3)ncnc2c1 [Example 230] ; wanted: its Ki
Response: < 100 nM

Request: Name the reported Ki value associated with the compound NS(=O)(=O)N1CCc2ccc(-c3ncnc4ccccc34)cc2C1 [Example 150]
Response: > 1000 nM

Request: Dear colleague, I am looking for the recorded Ki of the following compound: COc1cc2ncc(C#N)c(N3CCC(CCNS(N)(=O)=O)CC3)c2cn1 [Example 245]
Response: > 1000 nM

Request: Bench note: what Ki did COc1ccc2c(N3CCC(CCNS(N)(=O)=O)CC3)ncnc2c1 [Example 198] show?
Response: 100 to 1000 nM
